# System: PPR2.0t15 (synthetic designer (scaffold from Arabidopsis PPR consensus))
# experiment description: EMSA
# condition details: apparent; EMSA: 20 mM Tris-HCl pH 8.0, 150 mM NaCl, 0.5% NP-40, 1 mM DTT, 1 mM EDTA, 0.2 pmol biotin-RNA in 10 uL, 6% PAGE in 0.5x TBE; temperature not stated; RBP-ELISA …
measurement name: Kd (nM)
Write the value in nM as a bare number.

In: Checklist item: Kd tested on PPR2.0t15 (synthetic designer (scaffold from Arabidopsis PPR consensus)), entry GACAUGCAAGGAUAAUAUCAAACACGACUG [Probe_t15] , value?
Out: 41

###

# Test system: PPR2.0t24 (synthetic designer (scaffold from Arabidopsis PPR consensus))
# experiment description: EMSA
# condition details: apparent; EMSA: 20 mM Tris-HCl pH 8.0, 150 mM NaCl, 0.5% NP-40, 1 mM DTT, 1 mM EDTA, 0.2 pmol biotin-RNA in 10 uL, 6% PAGE in 0.5x TBE; temperature not stated; RBP-ELISA …
measurement name: Kd
Put down the number, then write its unit next to it.

In: So what does the record say about Kd for GACAUGCGGCGGGGCACUGUGCGUGGACUG [Probe_t24] ?
Out: 11 nM

###

# Tested on: PPR2.0t23 (synthetic designer (scaffold from Arabidopsis PPR consensus))
# experiment description: EMSA
# condition details: apparent; EMSA: 20 mM Tris-HCl pH 8.0, 150 mM NaCl, 0.5% NP-40, 1 mM DTT, 1 mM EDTA, 0.2 pmol biotin-RNA in 10 uL, 6% PAGE in 0.5x TBE; temperature not stated; RBP-ELISA …
measurement name: pKd
Please keep in mind that pKd is minus log10 of the molar concentration; only the number is needed.

In: Recorded pKd of GACAUGCCCCAUAGAUGUGACAAGCGACUG [Probe_t23] , please.
Out: 7.98

###

# Test system: PPR2.0t8 (synthetic designer (scaffold from Arabidopsis PPR consensus))
# experiment description: EMSA
# condition details: apparent; EMSA: 20 mM Tris-HCl pH 8.0, 150 mM NaCl, 0.5% NP-40, 1 mM DTT, 1 mM EDTA, 0.2 pmol biotin-RNA in 10 uL, 6% PAGE in 0.5x TBE; temperature not stated; RBP-ELISA …
measurement name: pKd
# pKd = -log10(concentration in molar units)

In: Please give the measured pKd for this sequence: GACAUGCCACUAUUUAAGUUAUCAAGACUG [Probe_t8]
Out: 8.71

###

# Tested on: PPR2.0t5 (synthetic designer (scaffold from Arabidopsis PPR consensus))
# experiment description: EMSA
# condition details: apparent; EMSA: 20 mM Tris-HCl pH 8.0, 150 mM NaCl, 0.5% NP-40, 1 mM DTT, 1 mM EDTA, 0.2 pmol biotin-RNA in 10 uL, 6% PAGE in 0.5x TBE; temperature not stated; RBP-ELISA …
measurement name: Kd (µM)
Please state the figure in µM; there is no need to write the unit.

In: Bench note: what Kd did GACAUGCCAACAUCAGUCUGAUAAGGACUG [Probe_t5] show?
Out: 0.167

###

# Test system: PPR2.0t4 (synthetic designer (scaffold from Arabidopsis PPR consensus))
# experiment description: EMSA
# condition details: apparent; EMSA: 20 mM Tris-HCl pH 8.0, 150 mM NaCl, 0.5% NP-40, 1 mM DTT, 1 mM EDTA, 0.2 pmol biotin-RNA in 10 uL, 6% PAGE in 0.5x TBE; temperature not stated; RBP-ELISA …
measurement name: Kd (nM)
Response body: numeric value in nM, unit text excluded.

In: Can you share its Kd? I mean this sequence: GACAUGCGGCAAAAAGAUCACUGUAGACUG [Probe_t4]
Out: 2.57

###

# Test system: PPR2.0t3 (synthetic designer (scaffold from Arabidopsis PPR consensus))
# experiment description: EMSA
# condition details: apparent; EMSA: 20 mM Tris-HCl pH 8.0, 150 mM NaCl, 0.5% NP-40, 1 mM DTT, 1 mM EDTA, 0.2 pmol biotin-RNA in 10 uL, 6% PAGE in 0.5x TBE; temperature not stated; RBP-ELISA …
measurement name: Kd
Your answer should be a number followed by the unit of measure.

In: Requested read-out: Kd. Entry: GACAUGCCUGAGUCAUAACCAGCCUGACUG [Probe_t3]
Out: 59.2 nM

###

# Test system: PPR2.0t14 (synthetic designer (scaffold from Arabidopsis PPR consensus))
# experiment description: EMSA
# condition details: apparent; EMSA: 20 mM Tris-HCl pH 8.0, 150 mM NaCl, 0.5% NP-40, 1 mM DTT, 1 mM EDTA, 0.2 pmol biotin-RNA in 10 uL, 6% PAGE in 0.5x TBE; temperature not stated; RBP-ELISA …
measurement name: Kd (µM)
Return type: number; implicit unit µM.

In: Find the recorded Kd belonging to GACAUGCGCAGAUAAUUAAUAAGAAGACUG [Probe_t14] and report it.
Out: 0.197

###

# Tested on: PPR2.0t19 (synthetic designer (scaffold from Arabidopsis PPR consensus))
# experiment description: EMSA
# condition details: apparent; EMSA: 20 mM Tris-HCl pH 8.0, 150 mM NaCl, 0.5% NP-40, 1 mM DTT, 1 mM EDTA, 0.2 pmol biotin-RNA in 10 uL, 6% PAGE in 0.5x TBE; temperature not stated; RBP-ELISA …
measurement name: pKd
The scale used: pKd is minus the common logarithm of the concentration in molar units.

In: Suppose we examine the sequence GACAUGCGUGAUGUGGAGUUAAGGCGACUG [Probe_t19] ; what pKd value has been reported?
Out: 6.76

###

# System: PPR2.0t1 (synthetic designer (scaffold from Arabidopsis PPR consensus))
# experiment description: EMSA
# condition details: apparent; EMSA: 20 mM Tris-HCl pH 8.0, 150 mM NaCl, 0.5% NP-40, 1 mM DTT, 1 mM EDTA, 0.2 pmol biotin-RNA in 10 uL, 6% PAGE in 0.5x TBE; temperature not stated; RBP-ELISA …
measurement name: pKd
Remember the convention: pKd equals -log10 of concentration in molar.

In: Look at this sequence and give its reported pKd. GACAUGCGAAUGAACUCUUCCGGGAGACUG [Probe_t1]
Out: 8.46
